system: T cells from cat allergic patients; test: T cell proliferation of TRFP-primed T cells from cat allergic patients (tritiated thymidine), Example 5 Part A; type: cell-based, human; details: Table 3, chain #2 TRFP peptides
Below is a list of entries, each paired with its recorded PI value.
ENDPOINT NAME: PI

substance="Fel 33-1: TRFP chain 2 amino acids 26-36 (CPIFYDVFFAV)" measured=340
substance="Fel 33-2: TRFP chain 2 amino acids 26-38 (CPIFYDVFFAVAN)" measured=210
substance="Fel 16: TRFP chain 2 amino acids 1-22 (DTMRGALLVLALLVTQALGVKM)" measured=283
substance="Fel 33-3: TRFP chain 2 amino acids 26-40 (CPIFYDVFFAVANGN)" measured=235
substance="Fel 32-3: TRFP chain 2 amino acids 16-24 (QALGVKMAE)" measured=270
substance="LLLDLSLTKVNATEPERTAMKKIQDC [Fel 18, TRFP chain 2 amino acids 23-48]" measured=466
